Could you please report measured pIC50 for the items listed next?
study_system: subtype of muscarinic receptors (M1-site, pirenzepine sensitive site), rat cerebral cortex membranes (Rattus norvegicus, UniProt P08482)
Construct: Fresh cortex (0.1-1 g) from male Wistar rats (150-200 g) is homogenized; from tissue; host or cells: fresh cerebral cortex membranes of male Wistar rats
Sequence (P08482 whole entry): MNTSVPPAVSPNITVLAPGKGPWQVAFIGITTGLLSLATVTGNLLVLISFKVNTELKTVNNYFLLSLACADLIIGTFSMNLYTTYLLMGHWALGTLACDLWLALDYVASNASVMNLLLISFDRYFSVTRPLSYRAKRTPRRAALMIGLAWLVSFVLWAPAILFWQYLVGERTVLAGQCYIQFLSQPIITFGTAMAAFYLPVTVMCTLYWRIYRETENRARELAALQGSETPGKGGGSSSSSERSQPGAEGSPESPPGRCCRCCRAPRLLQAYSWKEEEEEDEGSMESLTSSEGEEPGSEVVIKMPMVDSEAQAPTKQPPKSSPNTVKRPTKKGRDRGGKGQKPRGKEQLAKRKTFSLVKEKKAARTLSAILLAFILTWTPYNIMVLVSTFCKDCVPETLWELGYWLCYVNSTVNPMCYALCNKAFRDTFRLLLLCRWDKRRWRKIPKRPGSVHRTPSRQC
assay_remarks: inhibition of ^3 H-PRZ (pirenzepine, [N-methyl-^3 H]) binding to rat cerebral cortex membranes
Parameters: species or system rat (male Wistar)
particulars: ^3 H-Pirenzepine 1.0 nM, rat cortex, 60 min at 20° C, pH 7.4; read-out: ^3 H-PRZ IC50
Structures can show the parent of a compound that is named as a salt.
Give bare numbers, as −log10 of the molar value.

# count of solved cases: 5
1) N#Cc1ccc(CSc2nsnc2C23CN4CC2C3C4)cc1 ... 6.30
2) Fc1ccc(C#CCOc2nsnc2C23CN4CC2C3C4)cc1 ... 7.03
3) COc1cccc(C#CCOc2nsnc2C23CN4CC2C3C4)c1 [Compound 10, hydrochloride] ... 6.49
4) C(#Cc1cccs1)COc1nsnc1C12CN3CC1C2C3 ... 6.55
5) FC(F)(F)CCSc1nsnc1C12CN3CC1C2C3 ... 6.61

Please state, for each entry, its recorded pIC50.
1. C(#Cc1ccsc1)COc1nsnc1C12CN3CC1C2C3
2. C(#Cc1ccccc1)COc1nsnc1C12CN3CC1C2C3
3. C(#Cc1cccnc1)COc1nsnc1C12CN3CC1C2C3

Response:
1: 6.74; 2: 6.74; 3: 6.40
